system-tested: Arachidonate 5-lipoxygenase-activating protein (Homo sapiens)
method-notes: Inhibition of FLAP in human peripheral leukocytes assessed as inhibition of calcium ionophore A23187-induced LTB4 production after 5 mins by ELISA in absence of human serum albumin
Assay type: cell-based
assay-readout: IC50
Write the numeric value and follow it with the unit.

For orientation, consider the following solved cases.
CC(C)c1ccc2c(c1)c(SC(C)(C)C)c(CC(C)(C)C(=O)O)n2Cc1ccc(Cl)cc1: 2.2 nM
COc1ccc(-c2ccc(Cn3c(CC(C)(C)C(=O)O)c(SC(C)(C)C)c4cc(OCc5ccccn5)ccc43)cc2)cn1: 1.2 nM

Ask | API: value(readout= IC50, system= Arachidonate 5-lipoxygenase-activating protein (Homo sapiens), query= CCOc1ccc(-c2ccc(Cn3c(CC(C)(C)C(=O)O)c(SC(C)(C)C)c4cc(OCc5ccc(C)cn5)ccc43)cc2)cn1 [FIBOFLAPON] )
Reply | 1 nM

Ask | And CC(C)(C)Sc1c(CC(C)(C)C(=O)O)n(Cc2ccc(Cl)cc2)c2ccc(OCc3ccc4ccccc4n3)cc12 [QUIFLAPON SODIUM] ?
Reply | 1 nM

###

system-tested: Arachidonate 5-lipoxygenase-activating protein (Homo sapiens, UniProt P20292)
Sequence (P20292 whole entry): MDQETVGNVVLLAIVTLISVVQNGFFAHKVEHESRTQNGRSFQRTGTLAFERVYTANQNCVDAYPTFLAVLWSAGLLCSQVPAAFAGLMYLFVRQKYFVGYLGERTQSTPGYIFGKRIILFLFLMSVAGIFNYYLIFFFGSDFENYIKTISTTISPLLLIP
method-notes: Inhibition of FLAP in human peripheral leukocytes assessed as inhibition of calcium ionophore A23187-induced LTB4 production after 10 mins by ELISA in presence of 0.5% human serum albumin
Format: cell-based
Below is a list of entries, each paired with its recorded IC50 value.
Could you give me the number in µM? Just the number is fine.

For orientation, consider the following solved cases.
CC(C)(C)Sc1c(CC(C)(C)C(=O)O)n(Cc2ccc(Cl)cc2)c2ccc(OCc3ccc4ccccc4n3)cc12 [QUIFLAPON SODIUM]: 0.066
COc1ccc(-c2ccc(Cn3c(CC(C)(C)C(=O)O)c(SC(C)(C)C)c4cc(OCc5ccccn5)ccc43)cc2)cn1: 0.01
CC(C)c1ccc2c(c1)c(SC(C)(C)C)c(CC(C)(C)C(=O)O)n2Cc1ccc(Cl)cc1: 0.019

Attention now shifts to the item below.
Ask | What IC50 value was documented for this molecule, CCOc1ccc(-c2ccc(Cn3c(CC(C)(C)C(=O)O)c(SC(C)(C)C)c4cc(OCc5ccc(C)cn5)ccc43)cc2)cn1 [FIBOFLAPON] ?
Reply | 0.026

###

method-notes: AUC in Sprague-Dawley rat at 10 mg/kg, po
Assay type: ADME, organism-based
Design: dose 10 mg/kg, route oral
conditions-used: plasma
assay-readout: AUC (ng·h/mL)
Could you give me the number in ng·h/mL? Just the number is fine.

For orientation, consider the following solved cases.
COc1cnc(-c2ccc(Cn3c(CC(C)(C)C(=O)[O-])c(SC(C)(C)C)c4cc(OCc5ccc(C)cn5)ccc43)cc2)nc1.[Na+]: 63000
CCOc1ccc(-c2ccc(Cn3c(CC(C)(C)C(=O)[O-])c(SC(C)(C)C)c4cc(OCc5ccc(C)cn5)ccc43)cc2)cn1.[Na+] [FIBOFLAPON SODIUM]: 26000
Cc1ccc(COc2ccc3c(c2)c(SC(C)(C)C)c(CC(C)(C)C(=O)[O-])n3Cc2ccc(-c3ccc(F)cn3)cc2)nc1.[Na+]: 77000

Attention now shifts to the item below.
Ask | What AUC value was documented for this compound, Cc1ccc(COc2ccc3c(c2)c(SC(C)(C)C)c(CC(C)(C)C(=O)[O-])n3Cc2ccc(-c3ccc(C)cn3)cc2)nc1.[Na+] ?
Reply | 26000
